biological target: human GnRH receptors (Homo sapiens); construct: expressed in transfected cells; host or cells: HEK 293 cells, stably transfected; membranes; test: Radioligand binding: inhibition of 125I-GnRH-A binding to human GnRH receptor membranes; conditions: HEK 293 cell membranes
Sequence (P30968 whole entry): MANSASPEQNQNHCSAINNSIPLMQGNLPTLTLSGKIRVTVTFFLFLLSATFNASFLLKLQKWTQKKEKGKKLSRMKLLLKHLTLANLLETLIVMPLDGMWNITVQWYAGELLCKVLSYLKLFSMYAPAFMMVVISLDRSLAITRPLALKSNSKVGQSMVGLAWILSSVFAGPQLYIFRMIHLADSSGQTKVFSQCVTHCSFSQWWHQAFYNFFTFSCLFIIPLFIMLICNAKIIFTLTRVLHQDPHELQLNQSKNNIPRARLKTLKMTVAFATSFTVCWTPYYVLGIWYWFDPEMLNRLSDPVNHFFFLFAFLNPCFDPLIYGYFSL
The label is fulfilled for Ki below 20 nM and not fulfilled for Ki equal to or exceeding 20 nM.

| MOLECULE | CLASSIFICATION |
| --- | --- |
| COCCOc1nc(OC)c(NC(=O)c2ccc(Cc3cc4c(cc3C)C(C)(C)OC4(C)C)o2)c(OC)n1 | fulfilled |
| COc1nc(Nc2ccccc2)nc(OC)c1NC(=O)c1ccc(Cc2cc3c(cc2C)C(C)(C)OC3(C)C)o1 [Example D1] | fulfilled |
| COc1nc(N2CCC[C@H]2C(=O)OC(C)(C)C)nc(OC)c1NC(=O)c1ccc(Cc2cc3c(cc2C)C(C)(C)OC3(C)C)o1 | not fulfilled |
| COc1nc(NCCCN2CCN(C)CC2)nc(OC)c1NC(=O)c1ccc(Cc2c(C)cc3c(c2C)C(C)(C)CO3)o1 | not fulfilled |
| COc1nc(NCCCN2CCN(C)CC2)nc(OC)c1NC(=O)c1ccc(Cc2c(C)cc(C)c3c2OCC3(C)C)o1 | fulfilled |
| COc1nc(NCC(c2ccc[nH]2)C(F)(F)F)nc(OC)c1NC(=O)c1ccc(Cc2cc3c(cc2C)C(C)(C)OC3(C)C)o1 (centres unmarked) | not fulfilled |
| COc1nc(N2CCN(CCC#N)CC2)nc(OC)c1NC(=O)c1ccc(Cc2cc3c(cc2C)C(C)(C)OC3(C)C)o1 | not fulfilled |
| COc1nc(NCCN2CCOCC2)nc(OC)c1NC(=O)c1ccc(Cc2cc3c(cc2C)C(C)(C)OC3(C)C)o1 | fulfilled |
| CNCCCNc1nc(OC)c(NC(=O)c2ccc(Cc3cc4c(cc3C)C(C)(C)OC4(C)C)o2)c(OC)n1 | fulfilled |
| COc1nc(NCCN2CCCCC2)nc(OC)c1NC(=O)c1ccc(Cc2cc3c(cc2C)C(C)(C)OC3(C)C)o1 | fulfilled |
| COc1nc(NCc2ccc(-c3ccccc3)cc2)nc(OC)c1NC(=O)c1ccc(Cc2cc3c(cc2C)C(C)(C)OC3(C)C)o1 | not fulfilled |
| CCCCC(CC)COCCCNc1nc(OC)c(NC(=O)c2ccc(Cc3cc4c(cc3C)C(C)(C)OC4(C)C)o2)c(OC)n1 (centres unmarked) | fulfilled |
| COc1nc(NCc2c(F)cccc2F)nc(OC)c1NC(=O)c1ccc(Cc2cc3c(cc2C)C(C)(C)OC3(C)C)o1 | fulfilled |
| COc1nc(NCCN(C)CCCCCO)nc(OC)c1NC(=O)c1ccc(Cc2cc3c(cc2C)C(C)(C)OC3(C)C)o1 | fulfilled |

###

experiment: Pharmacokinetics in rats (jugular vein cannula, plasma LC-MS); format: in vivo, Rat; details: female, rat, plasma, po, 10 mg/kg, female rat; 10 mg/kg as 5 mg/ml solution in 10% DMSO, 10% cremophor, 80% saline (footnote 5); read-out: FR Cmax
Parameter threshold = 800 nM. Response is 1 when Cmax meets or exceeds it, else -1.

| MOLECULE | CLASSIFICATION |
| --- | --- |
| COc1nc(NCCCN2CCOCC2)nc(OC)c1NC(=O)c1ccc(Cc2cc3c(cc2C)C(C)(C)OC3(C)C)o1 [Example D3] | -1 |
| COc1nc(OCCO)nc(OC)c1NC(=O)c1ccc(Cc2cc3c(cc2C)C(C)(C)OC3(C)C)o1 [Example A3] | 1 |
| COc1nc(Nc2ccccc2)nc(OC)c1NC(=O)c1ccc(Cc2cc3c(cc2C)C(C)(C)OC3(C)C)o1 [Example D1] | -1 |
| CCN(CC)CCNc1nc(OC)c(NC(=O)c2ccc(Cc3cc4c(cc3C)C(C)(C)OC4(C)C)o2)c(OC)n1 [Example D7] | -1 |
| COc1nc(NCCCN2CCOCC2)nc(OC)c1NC(=O)c1ccc(Cc2cc3c(cc2Cl)C(C)(C)CCC3(C)C)o1 [Example G1] | -1 |
